- protocol_notes: Cytotoxicity against human DWD cells by sulforhodamine B method
- Assay type: functional
quantity_kind: GI50 (nM)
The reply should be a number in nM, with the unit left off.

Using the record for "COc1cc2c(cc1OCCCOc1ccc3c(c1)CC[C@@H]1[C@@H]3CC[C@]3(C)[C@@H](O)CC[C@@H]13)N=C[C@@H]1C[C@@H](F)CN1C2=O" , report its GI50.
1700

Endpoint output: GI50 of "COc1cc2c(cc1OCCCN1CCN(CCCOc3ccc4c(c3)CC[C@@H]3[C@@H]4CC[C@]4(C)[C@@H](O)CC[C@@H]34)CC1)N=C[C@@H]1CC(F)(F)CN1C2=O" . Value?
100

State the recorded GI50 for this entry: "COc1cc2c(cc1OCCCCCOc1ccc3c(c1)CC[C@@H]1[C@@H]3CC[C@]3(C)[C@@H](O)CC[C@@H]13)N=C[C@@H]1CCCN1C2=O"
180

Need GI50, item "COc1cc2c(cc1OCCCN1CCN(CCCOc3ccc4c(c3)CC[C@@H]3[C@@H]4CC[C@]4(C)[C@@H](O)CC[C@@H]34)CC1)N=C[C@@H]1C[C@@H](F)CN1C2=O"
100

Look up GI50: "COc1cc2c(cc1OCCCN1CCN(CCCOc3ccc4c(c3)CC[C@@H]3[C@@H]4CC[C@]4(C)[C@@H](O)CC[C@@H]34)CC1)N=C[C@@H]1CCCN1C2=O"
120

* * *

- Test system: ZR-75-1
- protocol_notes: Cytotoxicity against human ZR-75-1 cells by sulforhodamine B method
- Type: functional
Exercise: state measured GI50 for each of the compounds provided.
Could you give the number and then its unit, please?

Lab note: need GI50 for "COc1cc2c(cc1OCc1cn(CCCCCOc3ccc4c(c3)CC[C@@H]3[C@@H]4CC[C@]4(C)[C@@H](O)CC[C@@H]34)nn1)N=C[C@@H]1CC(F)(F)CN1C2=O" on ZR-75-1, anyone have it?
180 nM

Entry "COc1cc2c(cc1OCc1cn(CCCOc3ccc4c(c3)CC[C@@H]3[C@@H]4CC[C@]4(C)[C@@H](O)CC[C@@H]34)nn1)N=C[C@@H]1CC(F)(F)CN1C2=O" , system ZR-75-1: what GI50 was measured?
170 nM

Recall the recorded GI50 for "COc1cc2c(cc1OCCCCCOc1ccc3c(c1)CC[C@@H]1[C@@H]3CC[C@]3(C)[C@@H](O)CC[C@@H]13)N=C[C@@H]1CCCN1C2=O" with ZR-75-1 and state it.
1190 nM

// fetch ZR-75-1 GI50 for "COc1cc2c(cc1OCc1cn(CCCOc3ccc4c(c3)CC[C@@H]3[C@@H]4CC[C@]4(C)[C@@H](O)CC[C@@H]34)nn1)N=C[C@@H]1CCCN1C2=O"
190 nM

Please provide the recorded GI50 for "COc1cc2c(cc1OCCCN1CCN(CCCOc3ccc4c(c3)CC[C@@H]3[C@@H]4CC[C@]4(C)[C@@H](O)CC[C@@H]34)CC1)N=C[C@@H]1CC(F)(F)CN1C2=O" , tested on ZR-75-1.
120 nM

* * *

- System: MCF7
- protocol_notes: Cytotoxicity against human MCF7 cells by sulforhodamine B method
- Type: functional
Provide the reported GI50 of each item.
Number only, in nM; omit the unit.

GET /values?readout=GI50&item= "COc1cc2c(cc1OCCCN1CCN(CCCOc3ccc4c(c3)CC[C@@H]3[C@@H]4CC[C@]4(C)[C@@H](O)CC[C@@H]34)CC1)N=C[C@@H]1CCCN1C2=O"
110

What value of measured GI50 is listed for "COc1cc2c(cc1OCc1cn(CCCCCOc3ccc4c(c3)CC[C@@H]3[C@@H]4CC[C@]4(C)[C@@H](O)CC[C@@H]34)nn1)N=C[C@@H]1CCCN1C2=O" ?
140

Entry "COc1cc2c(cc1OCCCOc1ccc3c(c1)CC[C@@H]1[C@@H]3CC[C@]3(C)[C@@H](O)CC[C@@H]13)N=C[C@@H]1CCCN1C2=O" has what GI50?
170

What does the data say about its GI50? Entry: "COc1cc2c(cc1OCc1cn(CCCOc3ccc4c(c3)CC[C@@H]3[C@@H]4CC[C@]4(C)[C@@H](O)CC[C@@H]34)nn1)N=C[C@@H]1CCCN1C2=O"
120

* * *

- System: ZR-75-1
- protocol_notes: Cytotoxicity against human ZR-75-1 cells by sulforhodamine B method
- Format: functional
Hi there, I'd appreciate the recorded GI50 for every entry that follows.
Return type: number; implicit unit µM.

Could you tell me which GI50 is on file for "COc1cc2c(cc1OCCCOc1ccc3c(c1)CC[C@@H]1[C@@H]3CC[C@]3(C)[C@@H](O)CC[C@@H]13)N=C[C@@H]1C[C@@H](F)CN1C2=O" ?
0.14

GI50 lookup needed for "COc1cc2c(cc1OCCCCCOc1ccc3c(c1)CC[C@@H]1[C@@H]3CC[C@]3(C)[C@@H](O)CC[C@@H]13)N=C[C@@H]1C[C@@H](F)CN1C2=O" , thanks.
0.17

* * *

Please provide measured GI50 for the entries that follow.
- Test system: ZR-75-1
- protocol_notes: Cytotoxicity against human ZR-75-1 cells by sulforhodamine B method
- Format: functional
Note: unit µM is implicit; provide only the numeric part.

Returns the measured GI50 for the input molecule. Input: "COc1cc2c(cc1OCCCOc1ccc3c(c1)CC[C@@H]1[C@@H]3CC[C@]3(C)[C@@H](O)CC[C@@H]13)N=C[C@@H]1CCCN1C2=O"
1.19

For "COc1cc2c(cc1OCCCOc1ccc3c(c1)CC[C@@H]1[C@@H]3CC[C@]3(C)[C@@H](O)CC[C@@H]13)N=C[C@@H]1CC(F)(F)CN1C2=O" , what is its reported GI50?
0.18

Requested read-out: GI50. Entry: "COc1cc2c(cc1OCCCCCOc1ccc3c(c1)CC[C@@H]1[C@@H]3CC[C@]3(C)[C@@H](O)CC[C@@H]13)N=C[C@@H]1CC(F)(F)CN1C2=O"
0.19

Which value of GI50 has been reported for "COc1cc2c(cc1OCCCN1CCN(CCCOc3ccc4c(c3)CC[C@@H]3[C@@H]4CC[C@]4(C)[C@@H](O)CC[C@@H]34)CC1)N=C[C@@H]1CCCN1C2=O" in the records?
0.12

Quick check: GI50 of "COc1cc2c(cc1OCCCCCN1CCN(CCCCCOc3ccc4c(c3)CC[C@@H]3[C@@H]4CC[C@]4(C)[C@@H](O)CC[C@@H]34)CC1)N=C[C@@H]1CCCN1C2=O" ?
0.17

* * *

- Test system: MCF7
- protocol_notes: Cell cycle arrest in human MCF7 cells assessed as accumulation at G2/M phase using propidium iodide staining at 4 uM after 24 hrs by flow cytometry
- Assay type: functional
Kindly supply the reported Activity values for the records listed here.
Remember to follow the number with its unit.

Provide value of Activity for this record tested with MCF7: "C[C@]12CC[C@@H]3c4ccc(O)cc4CC[C@H]3[C@@H]1CC[C@@H]2O"
23.8%

Kindly state the measured Activity obtained for "COc1cc2c(cc1OCCCN1CCN(CCCOc3ccc4c(c3)CC[C@@H]3[C@@H]4CC[C@]4(C)[C@@H](O)CC[C@@H]34)CC1)N=C[C@@H]1C[C@@H](F)CN1C2=O" with MCF7.
24.33%

So what Activity did "COc1cc2c(cc1OCc1cn(CCCCCOc3ccc4c(c3)CC[C@@H]3[C@@H]4CC[C@]4(C)[C@@H](O)CC[C@@H]34)nn1)N=C[C@@H]1CC(F)(F)CN1C2=O" get with MCF7?
21.8%

Kindly state the measured Activity obtained for "COc1cc2c(cc1OCc1cn(CCCOc3ccc4c(c3)CC[C@@H]3[C@@H]4CC[C@]4(C)[C@@H](O)CC[C@@H]34)nn1)N=C[C@@H]1C[C@@H](F)CN1C2=O" with MCF7.
36.64%

* * *

- protocol_notes: Cytotoxicity against human DWD cells by sulforhodamine B method
- Format: functional
Counter-ions that a name gives are not always drawn.
quantity_kind: GI50

Would you kindly share the measured GI50 for "COc1cc2c(cc1OCCCCCN1CCN(CCCCCOc3ccc4c(c3)CC[C@@H]3[C@@H]4CC[C@]4(C)[C@@H](O)CC[C@@H]34)CC1)N=C[C@@H]1CC(F)(F)CN1C2=O" ?
1.32 µM

What does the data say about its GI50? Entry: COc1cccc2c1C(=O)c1c(O)c3c(c(O)c1C2=O)C[C@@](O)(C(=O)CO)C[C@@H]3O[C@H]1C[C@H](N)[C@H](O)[C@H](C)O1 [DOXORUBICIN HYDROCHLORIDE]
0.1 µM

GI50 for "COc1cc2c(cc1OCCCCCOc1ccc3c(c1)CC[C@@H]1[C@@H]3CC[C@]3(C)[C@@H](O)CC[C@@H]13)N=C[C@@H]1CC(F)(F)CN1C2=O" ?
2.17 µM

* * *

- protocol_notes: Cytotoxicity against human DWD cells by sulforhodamine B method
- Format: functional
quantity_kind: GI50 (nM)
Number only, in nM; omit the unit.

# get_value(readout='GI50', item= "COc1cc2c(cc1OCCCCCN1CCN(CCCCCOc3ccc4c(c3)CC[C@@H]3[C@@H]4CC[C@]4(C)[C@@H](O)CC[C@@H]34)CC1)N=C[C@@H]1C[C@@H](F)CN1C2=O" )
150

Look up GI50 for this compound: "COc1cc2c(cc1OCc1cn(CCCCCOc3ccc4c(c3)CC[C@@H]3[C@@H]4CC[C@]4(C)[C@@H](O)CC[C@@H]34)nn1)N=C[C@@H]1CCCN1C2=O"
170

What value of GI50 has been recorded for this entry: "COc1cc2c(cc1OCc1cn(CCCOc3ccc4c(c3)CC[C@@H]3[C@@H]4CC[C@]4(C)[C@@H](O)CC[C@@H]34)nn1)N=C[C@@H]1CC(F)(F)CN1C2=O"
170

For the compound shown here, "COc1cc2c(cc1OCc1cn(CCCCCOc3ccc4c(c3)CC[C@@H]3[C@@H]4CC[C@]4(C)[C@@H](O)CC[C@@H]34)nn1)N=C[C@@H]1C[C@@H](F)CN1C2=O" , give the reported GI50.
120

What value of measured GI50 is listed for "COc1cc2c(cc1OCc1cn(CCCCCOc3ccc4c(c3)CC[C@@H]3[C@@H]4CC[C@]4(C)[C@@H](O)CC[C@@H]34)nn1)N=C[C@@H]1CC(F)(F)CN1C2=O" ?
180

# credit: ChEMBL document CHEMBL1765029
